Target: hMPV-N46 (127-172) (Human metapneumovirus)
Construct: hMPV-N46 (127-172)
Sequence (Q6WB98 127-172): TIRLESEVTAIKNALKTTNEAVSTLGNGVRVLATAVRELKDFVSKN
Assay: SPR affinity to hMPV-N46 coupled on CM5 chip
Type: binding
pKd: −log10 of the molar value. The star is where a group is joined. Succinyl(4-O-cholesteryl) = CC(C)CCC[C@@H](C)[C@H]1CC[C@H]2[C@@H]3CC=C4C[C@@H](OC(=O)CCC(=O)*)CC[C@]4(C)[C@H]3CC[C@]12C
OBSERVED_PROPERTY: pKd

>>> recorded_number("Ac-WDEFDASISQVNEKINQSLEEIRKSDELLHNVNAGLGSGSGK(Succinyl(4-O-cholesteryl))-NH2 [Compound 27]")
5.53
>>> recorded_number("Ac-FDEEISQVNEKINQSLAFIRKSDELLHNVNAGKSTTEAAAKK(Succinyl(4-O-cholesteryl))-NH2 [Compound 26]")
5.67
>>> recorded_number("Ac-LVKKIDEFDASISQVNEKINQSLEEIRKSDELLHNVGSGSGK(Succinyl(4-O-cholesteryl))-NH2 [Compound 29]")
7.32
>>> recorded_number("Ac-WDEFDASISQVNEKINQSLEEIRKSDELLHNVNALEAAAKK(Succinyl(4-O-cholesteryl))-NH2 [Compound 38]")
6.41
